PROCEDURE TEXT: Cytotoxicity in uninfected PHA-stimulated human PBM cells
Type: cell-based
CONDITION SET: uninfected phytohemagglutinin-stimulated PBM cells
pIC50: −log10 of the molar value.
RECORDED METRIC: pIC50

Query string: What does the record list as pIC50 for CC(C)(C)OC(=O)N1[C@H](CO)CC(F)(F)[C@H]1n1cnc2c(N)ncnc21 ?
Result string: < 4.00

Query string: What does the record list as pIC50 for CC(C)(C)OC(=O)N1[C@H](CO)CC(F)(F)[C@H]1n1cnc2ncnc(N)c21 ?
Result string: < 4.00

Query string: What does the record list as pIC50 for CC(C)(C)OC(=O)N1[C@H](CO)CC(F)(F)[C@@H]1n1cnc2ncnc(N)c21 ?
Result string: < 4.00

Query string: What does the record list as pIC50 for CC(C)(C)OC(=O)N1[C@H](CO)CC(F)(F)[C@@H]1n1cnc2c(N)ncnc21 ?
Result string: < 4.00
